Test system: MDA-MB-231 multicell spheroids, viability (%T/C)
protocol description: Anticancer human tumor MDA-MB-231 cell line growth inhibition [IpAb];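 also: viability read after seven days of drug exposure; 100% = DMSO vehicle control viability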
recorded conditions: second compound 0.316 µM; first compound 1 µM; active compounds read low
Hi! Just check whether viability, T/C is below 60%. Below gives Yes, equal or above gives No.

INSERT INTO results (compound, class_name) VALUES
  ('CC1(C)CCC(CN2CCN(c3ccc(C(=O)NS(=O)(=O)c4ccc(NCC5CCOCC5)c([N+](=O)[O-])c4)c(Oc4cnc5[nH]ccc5c4)c3)CC2)=C(c2ccc(Cl)cc2)C1 + CC(C)NCC(C(=O)N1CCN(c2ncnc3c2C(C)CC3O)CC1)c1ccc(Cl)cc1', 'No'),
  ('COc1c(OCCCN2CCOCC2)ccc2c3n(c(=NC(=O)c4cnc(N)nc4)nc12)CCN3 + CC(C)NCC(C(=O)N1CCN(c2ncnc3c2C(C)CC3O)CC1)c1ccc(Cl)cc1', 'Yes'),
  ('CC1(C)CCC(CN2CCN(c3ccc(C(=O)NS(=O)(=O)c4ccc(NCC5CCOCC5)c([N+](=O)[O-])c4)c(Oc4cnc5[nH]ccc5c4)c3)CC2)=C(c2ccc(Cl)cc2)C1 + CCN1CCN(Cc2ccc(Nc3ncc(F)c(-c4cc(F)c5nc(C)n(C(C)C)c5c4)n3)nc2)CC1', 'Yes'),
  ('Cc1nc(NC(=O)N2CCCC2C(N)=O)sc1-c1ccnc(C(C)(C)C(F)(F)F)c1 (stereo unspecified) + CCN1CCN(Cc2ccc(Nc3ncc(F)c(-c4cc(F)c5nc(C)n(C(C)C)c5c4)n3)nc2)CC1', 'Yes'),
  ('C=CC(=O)N1CCN(c2nc(=O)n(-c3c(C)ccnc3C(C)C)c3nc(-c4c(O)cccc4F)c(F)cc23)C(C)C1 (stereo unspecified) + CCN1CCN(Cc2ccc(Nc3ncc(F)c(-c4cc(F)c5nc(C)n(C(C)C)c5c4)n3)nc2)CC1', 'No');

* * *

System: MDA-MB-231 multicell spheroids, viability (%T/C)
protocol description: Anticancer human tumor MDA-MB-231 cell line growth inhibition [IpAb];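 also: viability read after seven days of drug exposure; 100% = DMSO vehicle control viability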
recorded conditions: second compound 1 µM; first compound 0.316 µM; active compounds read low
Entries and their viability, T/C
experimental endpoint: viability, T/C (%)

INSERT INTO assay_data (compound, experimental_value) VALUES
  ('COc1c(OCCCN2CCOCC2)ccc2c3n(c(=NC(=O)c4cnc(N)nc4)nc12)CCN3 + CC(C)NCC(C(=O)N1CCN(c2ncnc3c2C(C)CC3O)CC1)c1ccc(Cl)cc1', 28.2),
  ('C=CCn1c(=O)c2cnc(Nc3ccc(N4CCN(C)CC4)cc3)nc2n1-c1cccc(C(C)(C)O)n1 + CC(C)NCC(C(=O)N1CCN(c2ncnc3c2C(C)CC3O)CC1)c1ccc(Cl)cc1', 28.3),
  ('Cn1nccc1Nc1nccc(-c2ccn(C(CO)c3ccc(Cl)c(F)c3)c(=O)c2)n1 (stereo not given) + CCN1CCN(Cc2ccc(Nc3ncc(F)c(-c4cc(F)c5nc(C)n(C(C)C)c5c4)n3)nc2)CC1', 19.3),
  ('CC1(C)CCC(CN2CCN(c3ccc(C(=O)NS(=O)(=O)c4ccc(NCC5CCOCC5)c([N+](=O)[O-])c4)c(Oc4cnc5[nH]ccc5c4)c3)CC2)=C(c2ccc(Cl)cc2)C1 + CCN1CCN(Cc2ccc(Nc3ncc(F)c(-c4cc(F)c5nc(C)n(C(C)C)c5c4)n3)nc2)CC1', 52.9),
  ('Cn1ncc(Cl)c1-c1cc(C(=O)NC(CN)Cc2cccc(F)c2)sc1Cl (stereo not given) + CCN1CCN(Cc2ccc(Nc3ncc(F)c(-c4cc(F)c5nc(C)n(C(C)C)c5c4)n3)nc2)CC1', 43.2);
